Item-by-item account of GI50
system: A549; assay: Cytotoxicity against human A549 cells after 48 hrs by SRB assay; type: functional, cell-based; details: Homo sapiens, A549, 48 h; read-out: GI50

Structure Smiles	GI50
C/C=C1\NC(=O)[C@H](Cc2ccccc2Cl)NC(=O)[C@@H](C(C)C)NC(=O)[C@@H]([C@H](C)CC)NC(=O)[C@H](NC(=O)[C@H](NC(=O)[C@H](CCCN)NC(=O)[C@H]2CCCN2C(=O)[C@H](NC(=O)[C@@H](NC(=O)[C@@H](NC(=O)[C@H](NC(=O)CCCC(C)C)C(C)C)[C@@H](C)O)C(C)C)C(C)C)[C@H](C)CC)[C@H](C)OC(=O)[C@H](C(C)C)NC1=O	418 nM
C/C=C1\NC(=O)[C@H](Cc2cccc(Cl)c2)NC(=O)[C@@H](C(C)C)NC(=O)[C@@H]([C@H](C)CC)NC(=O)[C@H](NC(=O)[C@H](NC(=O)[C@H](CCCN)NC(=O)[C@H]2CCCN2C(=O)[C@H](NC(=O)[C@@H](NC(=O)[C@@H](NC(=O)[C@H](NC(=O)CCCC(C)C)C(C)C)[C@@H](C)O)C(C)C)C(C)C)[C@H](C)CC)[C@H](C)OC(=O)[C@H](C(C)C)NC1=O	194 nM
C/C=C1\NC(=O)[C@H](Cc2ccccc2)NC(=O)[C@@H](C(C)C)NC(=O)[C@@H]([C@H](C)CC)NC(=O)[C@H](NC(=O)[C@H](NC(=O)[C@H](CCCN)NC(=O)[C@H]2CCCN2C(=O)[C@H](NC(=O)[C@@H](NC(=O)[C@@H](NC(=O)[C@@H](C)NC(=O)CCCC(C)C)[C@@H](C)O)C(C)C)C(C)C)[C@H](C)CC)[C@H](C)OC(=O)[C@H](C(C)C)NC1=O	1460 nM
C/C=C1\NC(=O)[C@H](Cc2ccccc2)NC(=O)[C@@H](C(C)C)NC(=O)[C@@H]([C@H](C)CC)NC(=O)[C@H](NC(=O)[C@H](NC(=O)[C@H](CCCNC(=O)C[C@](OC)(c2ccccc2)C(F)(F)F)NC(=O)[C@H]2CCCN2C(=O)[C@H](NC(=O)[C@@H](NC(=O)[C@@H](NC(=O)[C@H](NC(=O)CCCC(C)C)C(C)C)[C@@H](C)O)C(C)C)C(C)C)[C@H](C)CC)[C@H](C)OC(=O)[C@H](C(C)C)NC1=O	1010 nM
C/C=C1\NC(=O)[C@H](Cc2ccc(I)cc2)NC(=O)[C@@H](C(C)C)NC(=O)[C@@H]([C@H](C)CC)NC(=O)[C@H](NC(=O)[C@H](NC(=O)[C@H](CCCN)NC(=O)[C@H]2CCCN2C(=O)[C@H](NC(=O)[C@@H](NC(=O)[C@@H](NC(=O)[C@H](NC(=O)CC[C@@H](C)CC)C(C)C)[C@@H](C)O)C(C)C)C(C)C)[C@H](C)CC)[C@H](C)OC(=O)[C@H](C(C)C)NC1=O	226 nM
